Origin of values: ChEMBL document CHEMBL1141096

# Experimental target: Sphingosine 1-phosphate receptor 3 (Homo sapiens)
# Sequence (Q99500 whole entry): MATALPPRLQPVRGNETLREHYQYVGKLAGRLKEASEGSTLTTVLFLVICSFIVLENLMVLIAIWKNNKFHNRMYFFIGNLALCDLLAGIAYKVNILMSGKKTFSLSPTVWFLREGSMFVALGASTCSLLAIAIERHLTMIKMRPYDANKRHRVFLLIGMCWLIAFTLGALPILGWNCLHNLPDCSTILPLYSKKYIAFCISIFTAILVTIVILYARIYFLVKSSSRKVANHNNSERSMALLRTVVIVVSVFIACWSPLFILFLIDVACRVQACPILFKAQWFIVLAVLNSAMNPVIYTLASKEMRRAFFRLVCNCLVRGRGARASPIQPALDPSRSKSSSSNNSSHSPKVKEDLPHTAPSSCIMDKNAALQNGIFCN
# Protocol description: Concentration required for displacement of [33P]-labeled S1P from human sphingosine 1-phosphate receptor 3 expressed in CHO cells
Record form. Attribute: IC50. Fill in for each entry.

Prompt line: Reported IC50 for CC(C)(C)c1ccc(-c2nnc(-c3ccc(CN4CC(C(=O)O)C4)cc3)o2)cc1 : what is it?
Response line: > 10 µM

Prompt line: Entry CCCCc1ccc(-c2nc(-c3ccc(CN4CC(C(=O)O)C4)cc3)no2)cc1 : reported IC50 = ?
Response line: > 10 µM

Prompt line: Bench note: what IC50 did O=C(O)C1CN(Cc2ccc(-c3noc(-c4ccc(C5CC5)cc4)n3)cc2)C1 show?
Response line: > 10 µM

Prompt line: Which IC50 value is on record for O=C(O)C1CN(Cc2ccc(-c3noc(-c4ccc(C5CCCC5)cc4)n3)cc2)C1 ?
Response line: 14 µM

Prompt line: Name the recorded IC50 for O=C(O)C1CN(Cc2ccc(-c3noc(-c4ccc(C5CCC5)cc4)n3)cc2)C1 .
Response line: > 10 µM

Prompt line: Look up IC50 for this compound: CCCCCCc1ccc(-c2nc(-c3ccc(CN4CC(C(=O)O)C4)cc3)no2)cc1
Response line: > 10 µM

Prompt line: Look up IC50 for this compound: CC(C)(C)c1ccc(-c2noc(-c3ccc(CN4CC(C(=O)O)C4)cc3)n2)cc1
Response line: > 10 µM

Prompt line: I would be grateful if you could share the reported IC50 for CC(C)Cc1ccc(-c2nc(-c3ccc(CN4CC(C(=O)O)C4)cc3)no2)cc1 .
Response line: 12 µM

Prompt line: Requested field: IC50. Item: CCOc1ccc(-c2nc(-c3ccc(CN4CC(C(=O)O)C4)cc3)no2)cc1
Response line: > 1 µM

Prompt line: Data request, read-out IC50, for O=C(O)C1CN(Cc2ccc(-c3noc(-c4ccc(-c5ccccc5)cc4)n3)cc2)C1
Response line: > 10 µM

Prompt line: I have this compound here, CC(C)(C)c1ccc(-c2nnc(-c3ccccc3N)o2)cc1 , and I need its recorded IC50.
Response line: > 5 µM

Prompt line: Sample CC(C)Oc1ccc(-c2nc(-c3ccc(CN4CC(C(=O)O)C4)cc3)no2)cc1 — what was its IC50?
Response line: > 10 µM
